Biological target: GSPT1 (Homo sapiens, UniProt P15170+Q96SW2)
Construct: endogenously expressing GSPT1 with HiBiT fusion tag via CRISPR; endogenous in cells; host or cells: 293T.114 (HiBiT-GSPT1), CRISPR knock-in, generated in house
Sequence (P15170 whole entry, the tested form may be a part): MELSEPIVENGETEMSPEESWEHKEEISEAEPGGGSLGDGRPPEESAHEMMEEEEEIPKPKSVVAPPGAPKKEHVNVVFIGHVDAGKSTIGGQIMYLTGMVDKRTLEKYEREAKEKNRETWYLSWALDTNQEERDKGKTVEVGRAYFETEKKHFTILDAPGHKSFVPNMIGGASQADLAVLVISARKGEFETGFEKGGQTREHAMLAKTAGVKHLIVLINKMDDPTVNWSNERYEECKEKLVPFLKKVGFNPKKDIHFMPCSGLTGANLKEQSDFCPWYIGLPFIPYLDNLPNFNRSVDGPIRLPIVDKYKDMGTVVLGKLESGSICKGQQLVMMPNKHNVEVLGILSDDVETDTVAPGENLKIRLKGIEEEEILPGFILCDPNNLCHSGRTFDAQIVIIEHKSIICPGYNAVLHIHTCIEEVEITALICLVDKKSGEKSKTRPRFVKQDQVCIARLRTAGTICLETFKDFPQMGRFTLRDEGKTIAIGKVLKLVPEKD
Sequence (Q96SW2 whole entry, the tested form may be a part): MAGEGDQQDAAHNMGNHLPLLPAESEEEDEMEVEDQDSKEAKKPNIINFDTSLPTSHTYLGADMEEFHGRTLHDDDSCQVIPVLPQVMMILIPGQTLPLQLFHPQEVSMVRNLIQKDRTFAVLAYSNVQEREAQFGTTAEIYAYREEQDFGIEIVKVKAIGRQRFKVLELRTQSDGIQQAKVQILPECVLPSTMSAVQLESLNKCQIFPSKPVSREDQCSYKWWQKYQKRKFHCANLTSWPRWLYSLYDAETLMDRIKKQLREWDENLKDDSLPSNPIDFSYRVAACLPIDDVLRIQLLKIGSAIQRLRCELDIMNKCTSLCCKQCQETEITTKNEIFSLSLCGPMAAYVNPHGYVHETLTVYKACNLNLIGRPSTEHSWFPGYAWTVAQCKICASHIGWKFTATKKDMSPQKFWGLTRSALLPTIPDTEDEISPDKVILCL
Sequence (Q16531 whole entry partner, the tested form may be a part): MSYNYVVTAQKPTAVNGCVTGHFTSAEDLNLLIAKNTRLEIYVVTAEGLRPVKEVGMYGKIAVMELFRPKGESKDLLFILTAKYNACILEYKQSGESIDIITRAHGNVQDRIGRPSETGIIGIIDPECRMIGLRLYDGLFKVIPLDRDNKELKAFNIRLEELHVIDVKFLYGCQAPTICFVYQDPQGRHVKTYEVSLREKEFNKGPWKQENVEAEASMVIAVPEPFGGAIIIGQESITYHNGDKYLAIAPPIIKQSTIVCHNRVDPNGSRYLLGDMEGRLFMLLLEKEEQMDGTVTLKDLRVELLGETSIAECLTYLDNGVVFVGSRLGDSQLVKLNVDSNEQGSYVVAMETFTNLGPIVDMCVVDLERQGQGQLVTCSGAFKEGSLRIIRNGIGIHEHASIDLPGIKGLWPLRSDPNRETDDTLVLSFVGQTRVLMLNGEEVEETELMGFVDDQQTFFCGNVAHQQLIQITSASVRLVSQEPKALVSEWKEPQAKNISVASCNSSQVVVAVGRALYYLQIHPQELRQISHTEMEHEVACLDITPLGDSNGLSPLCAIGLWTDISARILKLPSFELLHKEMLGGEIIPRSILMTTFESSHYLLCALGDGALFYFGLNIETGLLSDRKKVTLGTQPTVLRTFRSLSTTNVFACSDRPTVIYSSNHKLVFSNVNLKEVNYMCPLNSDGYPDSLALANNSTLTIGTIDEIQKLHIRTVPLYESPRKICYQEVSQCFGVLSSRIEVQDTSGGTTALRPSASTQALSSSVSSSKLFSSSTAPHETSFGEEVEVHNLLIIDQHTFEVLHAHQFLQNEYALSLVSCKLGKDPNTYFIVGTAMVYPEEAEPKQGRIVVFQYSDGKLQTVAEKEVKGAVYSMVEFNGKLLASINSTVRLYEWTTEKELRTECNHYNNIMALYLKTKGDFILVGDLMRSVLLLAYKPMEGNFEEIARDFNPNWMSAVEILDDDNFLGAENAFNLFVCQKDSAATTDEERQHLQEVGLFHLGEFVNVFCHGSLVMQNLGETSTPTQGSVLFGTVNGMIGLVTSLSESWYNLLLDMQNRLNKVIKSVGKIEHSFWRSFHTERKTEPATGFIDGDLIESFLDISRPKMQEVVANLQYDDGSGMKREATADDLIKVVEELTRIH
Assay: GSPT1 degradation assay, HiBiT method (Nano-Glo HiBiT Lytic Assay)
Type: cell-based
Settings: 293T.114 (HiBiT-GSPT1) cells, 6 hours
outcome measure: Emax

compound	Emax
O=C1CCC(N2C(=O)c3ccc(CC4CN(Cc5ccccc5)C4)c4cccc2c34)C(=O)N1 (stereo not drawn)	60 to 95%
O=C1CCC(N2C(=O)c3ccc(N4CCN(Cc5ccccc5)CC4)c4nccc2c34)C(=O)N1 (stereo not drawn)	60 to 95%

Okay, now this compound:
IN: I have this compound here, CC(NC(=O)c1ccc2c3c(ccnc13)N(C1CCC(=O)NC1=O)C2=O)c1ccccc1 (stereo not drawn) , and I need its recorded Emax.
OUT: 60 to 95%
